Assay: yeast display, Sf9 membrane polyspecificity reagent, FACS + sequencing; frameworks hold sequencing errors
OBSERVED PROPERTY: polyreactivity (PSR sort gate)

QVQLVESGGGLVQAGGSLRLSCAASGRTFRPYDMGWYRQAPGKERELVATITTNGGSTYYADSVKGRFTISRDNAKNTVYLQMNSLKPEDTAVYYCATDNWWQTYHYQGGYYWGQGTQVTVSS ... low polyreactivity
QVQLVESGGGLVQAGGSLRLSCAASGSTINYNAMGWYRQAPGKERELVAAIDSGVSTNYADSVKGRFTITRDNAKNTVYLQMNSLKPEDTAVYYCNADPDYFDYWGQGTQVTVSS ... low polyreactivity
QVQLVESGGGLVQAGGSLRLSCAASGIIFIRYAMGWYRQAPGKERELVAAISWRGGSTYYADSVKGRFTISRDNAKNTVYFQMNSLKPEDTAVYYCAAGYFSYRRYDYWGEGTQVTVSS ... high polyreactivity
QVQLVESGGGLVQAGGSLRLSCAASGSILVDYAMGWYRQAPGKERELVASITRDGSTNYADSVKGRFTISRDNAKNTVYLQMNSLKPEDTAVYYCAAKYAWRLLEMYYWGQGTQVTVSS ... low polyreactivity
QVQLVESGGGLVQAGGSLRLSCAASGRIFGRNARGWYRQAPGKERELVAAISSSGGTYYADSVKGRFTISRYNAKNTVYLQMNSLKPEDTAVYYCNARVRTQQRWVDYWGLGTQVTVSS ... high polyreactivity
QVQLVESGGGLVQAGGSLRLSCAASGFIFSGYAMGWYRQAPGKERELVAAIRWSTGSTYYADSVKGRFTISRDNAKNTVYLQMNSLKPEDTAVYYCNAYRYQWAQSTEYDYWGQGTQVTVSS ... high polyreactivity

# context switch: different sequence, same polyreactivity (PSR sort gate)
Could you share which polyreactivity (PSR sort gate) value was measured for QVQLVESGGGLVQAGGSLRLSCAASGRTFWKYVMGWYRQAPGKERELVAVISRPAGSTYYADSVKGRFTISRDNAKNTVYLQMNSLKPEDTAVYYCAKRPKNKPVLGDYDHWGQGTQVTVSS ? low polyreactivity

Cited source: the nanobody polyreactivity screen of Harvey et al. (2022)
